Each recorded value in this set is attributed to patent US20250051375A1.

Measured solubility at 2 h, listed per entry for reference.
Experiment summary: Solubility in FaSSIF
Condition context: 23 °C, pH 6.5, fassif, thermodynamic from solid
Readout name: solubility at 2 h

Query smiles | Value
COC(=O)N[C@H](C(=O)N[C@@H](Cc1ccc(C#Cc2cnc(N3CC4CCC(C3)N4C3COC3)nc2)cc1)[C@H](CN(Cc1c(F)cc(-c2ccn(C(F)F)n2)cc1F)NC(=O)[C@@H](NC(=O)OC)C(C)(C)C(F)(F)F)OC(=O)CC(C)(C)c1c(CC(=O)N2CCN(S(N)(=O)=O)CC2)cc(C)cc1OP(=O)(O)O)C(C)(C)C(F)(F)F | < 1000 µg/mL
COC(=O)N[C@H](C(=O)N[C@@H](Cc1ccc(C#Cc2cnc(N3CC4CCC(C3)N4C3COC3)nc2)cc1)[C@H](CN(Cc1c(F)cc(-c2ccn(C(F)F)n2)cc1F)NC(=O)[C@@H](NC(=O)OC)C(C)(C)C(F)(F)F)OC(=O)OCOC(=O)CC(C)(C)c1c(CC(=O)N[C@@H](CCC(=O)O)C(=O)O)cc(C)cc1OP(=O)(O)O)C(C)(C)C(F)(F)F | 5570 µg/mL
